Listed binders paired with reported Kd
- target_under_test: T1, Monomeric 8-histidine tagged human EGFRvIII extracellular domain (human, UniProt P00533 298-645)
- T1 construct: Analyte in all SPR assays; not shown: 8-histidine tag
- assay_explanation: SPR, scFv-Fc captured by anti-human Fc, 37 C
Field: numeric (nM). Do not append units.

Example cases with answers are listed next.
query: Return reported Kd; argument: 20B9.HL scFv-Fc protein (Fc fusion, HL: heavy-chain variable domain at the N-terminus; not shown: human IgG1 Fc moiety) QVTLKESGPVLVKPTETLTLTCTVSGFSLSNARMGVSWIRQPPGKALEWLGHIFSTDEKSYSTSLRGRITISKDTSRGLVVLTLTNMDPVDTATYYCARDSSNYEGYFDFWGPGFLVTVSSGGGGSGGGGSGGGGSGGGGSEIVMTQSPATLSVSPGERATLSCRVSQSIGANLAWYQQKFGQAPRLLIYGASTRATGIPVRFSGGGSGTEFTLTISSLQSEDFAIYSCQQYIYWPFTFGPGTTVDIK
result: 73.8

query: Same question for 32G8.HL scFv-Fc protein (Fc fusion, HL: heavy-chain variable domain at the N-terminus; not shown: human IgG1 Fc moiety) EVNLVESGGGLVKPGGSLRLSCEASGFTFSYAWMSWVRQAPGKGLEWVGRIKSITDGGVIDYAAPVRNRCTISRDDSRNTLYLEMHSLKTEDTAVYYCTTIPGNDDFDMWGQGRMVTVSSGGGGSGGGGSGGGGSGGGGSDIVLTQSPLSLSVTPGEPASISCRSSQSLLYSNGKNYLDWFLHKPGQSPQLLIYLGSNRASGVPDRFSGSGSGIDFILKISRVEAEDVGVYYCMQAQQTPITFGQGTRLEIK please.
result: 1490

From here, focus on the item given below.
query: Return reported Kd; argument: 20E12.HL scFv-Fc protein (Fc fusion, HL: heavy-chain variable domain at the N-terminus; not shown: human IgG1 Fc moiety) EVNLVESGGGLVKPGGSLRLSCEASGFTFSYAWMSWVRQAPGKGLEWVGRIKSIADGGATDYAAPVRNRFTISRDDSRNTLYLEMHSLKTEDTAVYYCTTIPGNDAFDMWGQGTMVTVSSGGGGSGGGGSGGGGSGGGGSDIVLTQSPLSLSVTPGEPASISCRSSQSLLYSNGKNYLDWFLHKPGQSPQLLIYLGSNRASGVPDRFSGSGSGIDFILKISRVEAEDVGVYYCMQAQQTPITFGQGTRLEIK
result: 894
